Target: FXR (Homo sapiens)
Sequence (Q96RI1 1-472 isoform Q96RI1-2): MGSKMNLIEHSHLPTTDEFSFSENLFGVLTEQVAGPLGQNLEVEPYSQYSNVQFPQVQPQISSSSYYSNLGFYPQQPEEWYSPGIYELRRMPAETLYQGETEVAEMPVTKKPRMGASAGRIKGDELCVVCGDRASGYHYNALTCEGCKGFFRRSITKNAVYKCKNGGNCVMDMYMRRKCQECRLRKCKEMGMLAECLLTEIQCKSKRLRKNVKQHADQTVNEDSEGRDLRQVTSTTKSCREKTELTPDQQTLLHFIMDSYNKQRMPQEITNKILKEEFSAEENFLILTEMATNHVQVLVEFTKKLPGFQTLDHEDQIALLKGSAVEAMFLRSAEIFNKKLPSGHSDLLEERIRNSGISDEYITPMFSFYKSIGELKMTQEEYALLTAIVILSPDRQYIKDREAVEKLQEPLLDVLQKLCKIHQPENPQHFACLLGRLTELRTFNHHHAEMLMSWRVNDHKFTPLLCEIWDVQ
Assay: FXR-mediated transactivation, luciferase reporter in stable HEK293FXR reporter cell line
Settings: HEK293FXR reporter cells, 16 hours; read-out: EC50 of dose-dependent transactivation of the reporter gene luciferase by FXR

{"smiles-str": "CC(C)c1onc(-c2c(Cl)cccc2Cl)c1COc1ccc(Oc2ccc(C(=O)O)cc2)cc1", "EC50": "~1000 nM"}

====

Molecular target: human FXR alpha (NR1H4) (Homo sapiens)
Construct: human FXR alpha (NR1H4—(Acc. No:AF384555)) encoding amino acids 187–472; made in house; host or cells: E. coli BL21
Sequence (Q96RI1 187-472 isoform Q96RI1-2): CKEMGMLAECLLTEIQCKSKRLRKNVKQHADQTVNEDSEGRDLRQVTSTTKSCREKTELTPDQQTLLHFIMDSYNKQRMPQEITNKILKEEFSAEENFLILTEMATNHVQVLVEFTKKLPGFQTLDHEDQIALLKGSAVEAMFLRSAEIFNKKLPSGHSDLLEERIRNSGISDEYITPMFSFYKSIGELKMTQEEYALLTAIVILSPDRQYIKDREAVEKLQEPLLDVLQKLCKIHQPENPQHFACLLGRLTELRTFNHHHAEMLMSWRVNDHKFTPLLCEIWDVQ
Sequence (Q15596 548-878 partner limits assumed): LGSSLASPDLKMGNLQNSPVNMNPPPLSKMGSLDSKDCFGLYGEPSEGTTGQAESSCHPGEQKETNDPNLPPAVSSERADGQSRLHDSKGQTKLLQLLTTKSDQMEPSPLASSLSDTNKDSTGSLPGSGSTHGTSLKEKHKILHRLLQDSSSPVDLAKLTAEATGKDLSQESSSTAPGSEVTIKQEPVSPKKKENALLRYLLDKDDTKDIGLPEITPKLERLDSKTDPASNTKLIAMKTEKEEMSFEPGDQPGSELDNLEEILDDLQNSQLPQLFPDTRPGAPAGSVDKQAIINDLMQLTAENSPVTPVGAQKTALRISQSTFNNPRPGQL
Assay: In vitro screening for FXR binding to coactivator TIF2 (LANCE TR-FRET)
Assay type: biochemical
Settings: relative to CDCA control agonist
test-readout: EFFIC AVG (average efficacy, % activity relative to CDCA control agonist) (%)

{"smiles-str": "CC(C)c1onc(-c2c(Cl)cccc2Cl)c1COc1ccc(Oc2ccc(C(=O)O)cc2)cc1", "numeric-value": 85}
{"smiles-str": "COC(=O)CCc1ccc(OCc2c(-c3c(Cl)cccc3Cl)noc2C(C)C)cc1", "numeric-value": 108}
{"smiles-str": "CC(C)c1onc(-c2c(Cl)cccc2Cl)c1COc1ccc(CCC(=O)O)cc1", "numeric-value": 115}
{"smiles-str": "CC(C)c1onc(-c2c(Cl)cccc2Cl)c1COc1ccc2cc(C(=O)O)ccc2c1", "numeric-value": 134}
{"smiles-str": "CC(C)c1onc(-c2c(Cl)cccc2Cl)c1COc1ccc(OCC(=O)O)cc1", "numeric-value": 117}
{"smiles-str": "CC(C)c1onc(-c2c(Cl)cccc2Cl)c1COc1ccc(/C=C/C(=O)O)c(Cl)c1", "numeric-value": 100}
